- System: TK-10 renal
- test description: NCI-60 one-dose screen, 48 h (100 = growth as untreated, 0 = no growth, -100 = all killed)
- experimental conditions: 10 µM unless noted
The panel holds about 83,000 compounds, 20% with a hit somewhere; the sample as a whole holds those more often.
# if measured growth < 70%: rule met  # else: rule not met

Would you please look over these solved cases?
• C=CC(=O)Nc1cccc(-c2nc(SC)nc(NCCc3ccc(OC)c(OC)c3)c2C#N)c1 = rule not met
• NC1=C(Cl)C(=O)c2ccc(S(N)(=O)=O)cc2C1=O = rule met
• N#CCCN=Nc1c(O)[nH]c2ccc([N+](=O)[O-])cc12 = rule not met
• Clc1ccc2c(NCCCCNc3nc(N4CCCCC4)nc4ccccc34)ccnc2c1 = rule met
• FC(F)(F)Oc1ccc2nc3nc4ccc[nH]c4cc3c2c1 = rule met

Kindly consider the entry below.
In the record for CC(=O)O[C@H]1CC[C@]2(C)[C@H]3CC=C4[C@@H]5CC(C)(C)CC[C@]5(C(=O)NCCNCCN)CC[C@@]4(C)[C@]3(C)CC[C@H]2C1(C)C , is growth less than 70%?
rule met
